Measured inhibition of individual entries
target: Serine/threonine-protein kinase PAK 6 (Homo sapiens) (UniProt Q9NQU5); conditions: at 1 µM;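 note: values are mean percent inhibition of PAK6 kinase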
Sequence (Q9NQU5 whole entry, looked up): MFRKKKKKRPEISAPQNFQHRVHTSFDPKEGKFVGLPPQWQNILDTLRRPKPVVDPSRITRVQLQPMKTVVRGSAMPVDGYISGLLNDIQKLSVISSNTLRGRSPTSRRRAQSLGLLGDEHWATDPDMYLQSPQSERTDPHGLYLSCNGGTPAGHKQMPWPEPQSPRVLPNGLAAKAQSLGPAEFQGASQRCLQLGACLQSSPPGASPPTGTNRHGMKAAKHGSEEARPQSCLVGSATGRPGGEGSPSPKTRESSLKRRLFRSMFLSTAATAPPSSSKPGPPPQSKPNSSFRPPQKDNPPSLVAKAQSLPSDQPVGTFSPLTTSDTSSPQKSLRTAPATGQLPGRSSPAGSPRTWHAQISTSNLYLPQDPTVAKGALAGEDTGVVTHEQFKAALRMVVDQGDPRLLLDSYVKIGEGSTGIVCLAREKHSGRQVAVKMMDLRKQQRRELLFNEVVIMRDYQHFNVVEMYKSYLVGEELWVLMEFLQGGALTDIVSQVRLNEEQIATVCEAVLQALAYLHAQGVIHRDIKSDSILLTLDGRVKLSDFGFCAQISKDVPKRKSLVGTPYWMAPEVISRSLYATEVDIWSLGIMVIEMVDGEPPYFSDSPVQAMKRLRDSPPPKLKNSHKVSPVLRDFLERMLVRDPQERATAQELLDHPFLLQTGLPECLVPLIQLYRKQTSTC
Numbers only; they are read as %.

# annotated cases, reported inhibition shown
[[record]]
smiles_representation = "CCn1c(-c2nonc2N)nc2cncc(C(=O)NCCNC)c21"
unit_symbol = "%"
experimental_value = -1.02

[[record]]
smiles_representation = "CS(=O)(=O)CCNCc1ccoc1-c1ccc2ncnc(Nc3ccc(OCc4ccccc4)cc3)c2c1"
unit_symbol = "%"
experimental_value = -2.12

[[record]]
smiles_representation = "CCN1CCC(C(=O)Nc2n[nH]c3nnc(-c4cccc(F)c4F)cc23)CC1"
unit_symbol = "%"
experimental_value = -6.98

[[record]]
smiles_representation = "Fc1cccc(COc2ccc(Nc3ncncc3C#Cc3ccccc3)cc2Cl)c1"
unit_symbol = "%"
experimental_value = -8.4

[[record]]
smiles_representation = "OCCCNc1nccc(-c2c(-c3ccc(F)cc3)nn3cc(C(F)(F)F)ccc23)n1"
unit_symbol = "%"
experimental_value = -2.02


// next entry
Q: Report inhibition for CNC(=O)c1ncccc1Nc1nc(Nc2cc3c(cc2OC)CCCN3C(=O)CN(C)C)nc2[nH]ccc12 please.
Result: 3.38
